B1: LINE1-mini (parent)
chain: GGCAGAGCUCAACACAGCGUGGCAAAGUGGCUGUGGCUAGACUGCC

Variants of: B1
Measurement Protocol: self-cleavage, relative activity (ratio to wild type); higher = more cleavage; in vitro, sequencing; the parent is a self-cleaving ribozyme
self-cleavage of 0.1 or higher: Condition met. Under 0.1: Condition not met.

input: Say whether C18G G19C shows self-cleavage of 0.1 or more.
output: Condition met

input: Say whether A39U C46U shows self-cleavage of 0.1 or more.
output: Condition met

input: Say whether G7C C15U shows self-cleavage of 0.1 or more.
output: Condition met

input: Say whether G5U C10A shows self-cleavage of 0.1 or more.
output: Condition not met

input: Say whether A6C U28C shows self-cleavage of 0.1 or more.
output: Condition met

input: Say whether U28G A39U shows self-cleavage of 0.1 or more.
output: Condition met

input: Say whether A41C U43A shows self-cleavage of 0.1 or more.
output: Condition met

input: Say whether A26C G33A shows self-cleavage of 0.1 or more.
output: Condition met

input: Say whether U9A A12G shows self-cleavage of 0.1 or more.
output: Condition not met

input: Say whether A4U C18U shows self-cleavage of 0.1 or more.
output: Condition met

input: Say whether G30A U38G shows self-cleavage of 0.1 or more.
output: Condition not met

input: Say whether C13G A14G shows self-cleavage of 0.1 or more.
output: Condition not met

input: Say whether A11U G40A shows self-cleavage of 0.1 or more.
output: Condition not met

input: Say whether A11G G33U shows self-cleavage of 0.1 or more.
output: Condition not met

input: Say whether C18G A41U shows self-cleavage of 0.1 or more.
output: Condition met

input: Say whether A26C G29C shows self-cleavage of 0.1 or more.
output: Condition met

input: Say whether G29C U43A shows self-cleavage of 0.1 or more.
output: Condition not met

input: Say whether G7U C15G shows self-cleavage of 0.1 or more.
output: Condition not met

input: Say whether G5U G35A shows self-cleavage of 0.1 or more.
output: Condition not met

input: Say whether C8G G35C shows self-cleavage of 0.1 or more.
output: Condition not met

input: Say whether G17C G33C shows self-cleavage of 0.1 or more.
output: Condition not met

input: Say whether U9G A16G shows self-cleavage of 0.1 or more.
output: Condition not met

input: Say whether G35A U38G shows self-cleavage of 0.1 or more.
output: Condition not met

input: Say whether G2C A4C shows self-cleavage of 0.1 or more.
output: Condition met

input: Say whether C15A A16C shows self-cleavage of 0.1 or more.
output: Condition not met

input: Say whether A11G A39C shows self-cleavage of 0.1 or more.
output: Condition not met

input: Say whether C8G A14C shows self-cleavage of 0.1 or more.
output: Condition met

input: Say whether G44C shows self-cleavage of 0.1 or more.
output: Condition met

input: Say whether A41G C46G shows self-cleavage of 0.1 or more.
output: Condition not met

input: Say whether A12C U38G shows self-cleavage of 0.1 or more.
output: Condition not met

input: Say whether U32A U34C shows self-cleavage of 0.1 or more.
output: Condition met

input: Say whether A14G U32G shows self-cleavage of 0.1 or more.
output: Condition not met

input: Say whether G1C C46G shows self-cleavage of 0.1 or more.
output: Condition met

input: Say whether G1A G35U shows self-cleavage of 0.1 or more.
output: Condition met

input: Say whether U34C A39U shows self-cleavage of 0.1 or more.
output: Condition not met

input: Say whether C31U U38C shows self-cleavage of 0.1 or more.
output: Condition met

input: Say whether G7C G33C shows self-cleavage of 0.1 or more.
output: Condition not met

input: Say whether G7A G30A shows self-cleavage of 0.1 or more.
output: Condition met

input: Say whether G1A A6G shows self-cleavage of 0.1 or more.
output: Condition not met

input: Say whether A14C G33U shows self-cleavage of 0.1 or more.
output: Condition not met

input: Say whether G19C U43G shows self-cleavage of 0.1 or more.
output: Condition not met

input: Say whether G5U U28G shows self-cleavage of 0.1 or more.
output: Condition not met

input: Say whether G40C U43C shows self-cleavage of 0.1 or more.
output: Condition not met

input: Say whether A24G G29C shows self-cleavage of 0.1 or more.
output: Condition met

input: Say whether A6U C10U shows self-cleavage of 0.1 or more.
output: Condition met
